Ref: ChEMBL document CHEMBL1136734

- experiment_description: MRT value was determined by intravenous administration of 6.8 umol/kg dose in mice
- Type: ADME, organism-based
- cond: mouse, in vivo
reported_endpoint: MRT (h)
Give just the numeric value; h need not be written.

For the compound shown here, CCCC(=O)C1(c2ccccc2)CCN(C(=O)[C@@H](Cc2ccc(OC)cc2)NC(=O)[C@@H](N)Cc2cncn2C)CC1 , give the reported MRT.
1.2

---

- system: Melanocortin receptor 5 (Homo sapiens)
- Sequence (P33032 whole entry): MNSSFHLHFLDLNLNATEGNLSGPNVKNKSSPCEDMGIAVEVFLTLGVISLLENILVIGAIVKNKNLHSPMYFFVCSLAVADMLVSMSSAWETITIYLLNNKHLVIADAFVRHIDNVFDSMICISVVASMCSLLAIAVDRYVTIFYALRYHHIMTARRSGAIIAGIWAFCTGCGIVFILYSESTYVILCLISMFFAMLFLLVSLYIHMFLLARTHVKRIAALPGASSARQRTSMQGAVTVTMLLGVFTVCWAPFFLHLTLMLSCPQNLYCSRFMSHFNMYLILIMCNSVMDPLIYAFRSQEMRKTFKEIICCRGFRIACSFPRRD
- experiment_description: In vitro intrinsic activity against human Melanocortin 5 receptor (MC5R)
# if value of Intrinsic activity reaches 40%, tag class 1; if it stays below, tag class 0

CCCC(=O)C1(c2ccccc2)CCN(C(=O)[C@@H](Cc2ccc(OC)cc2)NC(=O)[C@@H](N)Cc2cncn2C)CC1 class 0
CCCC(=O)C1(c2ccccc2)CCN(C(=O)[C@@H](Cc2ccc(OC)cc2)NC(=O)CCc2c[nH]cn2)CC1 class 0
CCCC(=O)C1(c2ccccc2)CCN(C(=O)[C@@H](Cc2ccc(OC)cc2)NC(=O)[C@@H](Cc2c[nH]cn2)NC(C)=O)CC1 class 1
CCCC(=O)C1(c2ccccc2)CCN(C(=O)[C@@H](Cc2ccc(OC)cc2)NC(=O)[C@H](O)Cc2c[nH]cn2)CC1 class 0

Alright, here's another compound for you.
Could you verify whether the entry CCCC(=O)C1(c2ccccc2)CCN(C(=O)[C@@H](Cc2ccc(OC)cc2)NC(=O)[C@@H](Cc2c[nH]cn2)NC(=O)c2ccccc2)CC1 shows Intrinsic activity of no less than 40%?
class 1
